Biological target: P. falciparum apicoplast DNA polymerase (Pf-apPOL) (Plasmodium falciparum, UniProt Q8ILY1)
Sequence (Q8ILY1 entry or part of it): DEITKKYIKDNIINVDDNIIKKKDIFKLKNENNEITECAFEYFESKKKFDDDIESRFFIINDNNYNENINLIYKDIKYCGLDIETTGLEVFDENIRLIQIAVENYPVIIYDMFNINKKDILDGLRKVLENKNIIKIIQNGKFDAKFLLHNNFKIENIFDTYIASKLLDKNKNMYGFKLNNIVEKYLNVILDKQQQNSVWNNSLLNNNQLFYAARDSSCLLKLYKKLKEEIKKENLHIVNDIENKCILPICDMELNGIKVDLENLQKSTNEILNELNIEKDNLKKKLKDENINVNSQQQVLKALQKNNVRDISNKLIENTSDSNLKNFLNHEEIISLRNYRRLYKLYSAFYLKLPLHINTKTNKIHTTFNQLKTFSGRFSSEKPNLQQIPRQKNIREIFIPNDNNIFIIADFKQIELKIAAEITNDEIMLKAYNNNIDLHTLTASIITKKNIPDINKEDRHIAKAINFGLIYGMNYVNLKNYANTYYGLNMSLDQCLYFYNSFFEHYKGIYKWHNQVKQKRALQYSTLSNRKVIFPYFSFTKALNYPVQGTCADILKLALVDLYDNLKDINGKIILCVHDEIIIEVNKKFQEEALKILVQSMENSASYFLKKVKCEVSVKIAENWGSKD
Test: Fluorescence-based high-throughput DNA polymerase assay (molecular beacon), primary screen and dose-response;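 on % inhibition apPOL 180': test concentration in µM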
Assay type: biochemical
Details: DRC-2; 180'; conc 10
So basically, the class depends on measured % inhibition apPOL 180', and the ranges are I = under 20%, II = from 20% up to 50%, III = 50% and over

>>> print(df.to_string())
                                    compound  cat
 0       O=c1nc(/C=C/c2ccc(Br)cc2)oc2ccccc12    I
 1    C=CCOc1c(Br)cc(Br)cc1/C=C1\SC(=N)NC1=O    I
 2  Cc1cc(C)c2c(c1)C1C=CCC1C(c1ccc(C(=O)O)cc1)N2 (stereo not drawn)  III
 3  O=C(O)c1ccc(COc2cc([N+](=O)[O-])cc3cccnc23)cc1    I
 4  O=C1NN(c2ccc(Cl)c(Cl)c2)C(=O)/C1=C/c1ccc(-c2ccc3c(c2)C(=O)OC3)o1   II
 5  Cc1ccc(CNC(=O)c2cnn3c(O)cc(CSc4ccc(Cl)cc4)nc23)cc1   II
 6  Cc1ccccc1NC(=O)Cn1ccc2c(=O)[nH]ccc21 [Molecule 50, O=C(Cn1ccc2c1cc[nH]c2=O)Nc1ccc(cc1)C]   II
 7  COc1ccccc1C1CC(=O)Oc2cc3c(cc21)OCO3 (stereo not drawn)   II
 8  COC(=O)c1sc(-c2ccc(C(C)(C)C)cc2)cc1NC(=O)CCC(=O)O   II
 9  Cc1ccc(NC(=O)Cn2ccc3c(=O)[nH]ccc32)c(C)c1    I
10   O=C1Nc2ccc(I)cc2C1=Cc1cc(Br)c(O)c(Br)c1   II
11  CCOc1nc2cccc(C(=O)OC(C)OC(=O)OC3CCCCC3)c2n1Cc1ccc(-c2ccccc2-c2nnn[nH]2)cc1 (stereo not drawn)  III
12  CC(C)CCNC(=O)c1cnn2c(O)cc(CSc3ccc(Cl)cc3)nc12  III
13          N#CC(C#N)=C1SCN(c2cccc(Cl)c2)CS1   II
14  C=CC1=C(C)c2cc3[nH]c(cc4nc(cc5[nH]c(cc1n2)c(C)c5CCC(=O)O)C(CCC(=O)O)=C4C)c(C)c3C=C  III

====

Recorded % inhibition apPOL 180' for the following molecules
Molecular target: P. falciparum apicoplast DNA polymerase (Pf-apPOL) (Plasmodium falciparum, UniProt Q8ILY1)
Assay: Fluorescence-based high-throughput DNA polymerase assay (molecular beacon), primary screen and dose-response;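 on % inhibition apPOL 180': test concentration in µM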
Format: biochemical
Conditions: DRC-1; 180'; concentration 20
Readout kind: % inhibition apPOL 180' (%)

In [3]: df
Out[3]:
                                   molecule  unit_annotation  quantitative_readout
0  O=C(Nc1ccc2c(c1)Cc1cc(NC(=O)c3ccco3)ccc1-2)c1ccco1                %               16.9681
1    O=C1CCCC2=C1C(c1ccccn1)C1=C(CCCC1=O)O2                %               44.3828
2  Cc1cccc(-c2nnc3ccc(NS(=O)(=O)c4ccc(C)c(C)c4)nn23)c1                %               37.8584
3  COc1cccc(C(=O)N2CCc3c(nc4cc(-c5ccccc5)[nH]n4c3=O)C2)c1OC                %                    49
4  N#Cc1c(C2CCCCC2)nc(Sc2ccc(C(F)(F)F)cc2[N+](=O)[O-])[nH]c1=O                %               78.9137
5  CCCCCCCCCCCC1SCC(C(=O)O)N1C(C)=O (stereo not drawn)                %               11.4894
6  O=c1[nH]c2ccc([N+](=O)[O-])cc2c(-c2ccccc2)c1Sc1nc2ccccc2o1                %               19.4729
7  O=C(c1c[nH]c2ncccc12)N1CCCCCC1 [Molecule 51, O=C(c1c[nH]c2c1cccn2)N1CCCCCC1]                %               18.2058
8     CC(=O)Nc1cc(C(=O)NC(C)C)c2ccc(C)nc2c1                %               18.5029

====

Molecular target: P. falciparum apicoplast DNA polymerase (Pf-apPOL) (Plasmodium falciparum, UniProt Q8ILY1)
Experiment: Fluorescence-based high-throughput DNA polymerase assay (molecular beacon), primary screen and dose-response;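 on % inhibition Apol 40': compound concentration given in µM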
Format: biochemical
Details: DRC-2, 40', concentration 10 (unit not given)
Parameter threshold = 50%. Response is MET when % inhibition Apol 40' meets or exceeds it, else NOT MET.

                                   molecule      cat
0  COc1cc(NC(=O)c2ccccc2)c(OC)cc1NC(=O)Cc1cccs1 [KU0032113]      MET
1  OC(C#Cc1ccccc1)c1ccco1 (stereo not shown) [Molecule 95, OC(c1ccco1)C#Cc1ccccc1]      MET
2  O=C(Cn1ccc2c(=O)[nH]ccc21)Nc1ccc(Cl)cc1 [Molecule 36, O=C(Cn1ccc2c1cc[nH]c2=O)Nc1ccc(cc1)Cl]      MET
3  Cc1cc(C)c2c(O)nc(SCC(=O)c3ccc(O)c(O)c3)nc2n1 [Molecule 88]      MET
4  COc1ccc2c(c1)C(c1ccccc1OC)CC(=O)O2 (stereo not shown) [Molecule 38, COc1ccc2c(c1)C(CC(=O)O2)c1ccccc1OC]  NOT MET
5  O=C(O)c1ccc(-c2nc3cc(-c4ccc5nc(-c6ccc(C(=O)O)cc6)[nH]c5c4)ccc3[nH]2)cc1 [Molecule 1]  NOT MET
6  N#Cc1c(C2CCCCC2)nc(Sc2ccc(C(F)(F)F)cc2[N+](=O)[O-])[nH]c1=O [Molecule 20]      MET
7  O=C(Cn1ccc2c(=O)[nH]ccc21)Nc1cccc(Cl)c1 [Molecule 23, O=C(Cn1ccc2c1cc[nH]c2=O)Nc1cccc(c1)Cl]      MET
8  O=[N+]([O-])/C=C/c1ccc(-c2ccc(Br)cc2)o1 [Molecule 31, O=N(=O)/C=C/c1ccc(o1)c1ccc(cc1)Br]  NOT MET

====

Target: P. falciparum apicoplast DNA polymerase (Pf-apPOL) (Plasmodium falciparum, UniProt Q8ILY1)
Experiment: Fluorescence-based high-throughput DNA polymerase assay (molecular beacon), primary screen and dose-response
Assay type: biochemical
Conditions: DRC-1; 90'; concentration 20
Form field: % inhibition Apol 90' (one value per entry).
Readout kind: % inhibition Apol 90' (%)

>>> df
                                    molecule  quantitative_readout
 0  O=C(O)CC1=NN(c2cccc([N+](=O)[O-])c2)C(=O)C1               34.3533
 1  O=C(O)CC1SC(c2ccc3c(c2)OCO3)=NC1=O (stereo not shown)               18.6533
 2  Cc1ccc(CCNC(=O)c2cnn3c(O)c(Cc4ccccc4F)c(C)nc23)cc1               36.3215
 3  COc1cccc(C(=O)N2CCc3c(nc4cc(-c5ccccc5)[nH]n4c3=O)C2)c1OC                    67
 4  O=C(Nc1ncc([N+](=O)[O-])s1)c1ccc2c(c1)C(=O)N(N1C(=O)c3ccccc3C1=O)C2=O                31.377
 5  Cc1cc(C)c(O)c(/N=C/c2cc([N+](=O)[O-])cc(Br)c2O)c1               23.1885
 6  COc1ccc(C(=O)N2CCc3c(nc4cc(-c5ccccc5Cl)[nH]n4c3=O)C2)cn1                    74
 7     Oc1cccc2ccc(/C=C/c3ccc4c(c3)OCO4)nc12               70.7764
 8  O=C1C(=Cc2ccncc2)Oc2c1ccc1c2CN(Cc2ccc3c(c2)OCO3)CO1               57.2301
 9  CO/N=C(\C(=O)N[C@@H]1C(=O)N2C(C(=O)[O-])=C(CSc3nc(=O)c([O-])nn3C)CSC12)c1csc(N)n1.[Na+].[Na+] (stereo partly shown)               10.9979
10  O=C(NNC(=O)C(F)(F)Sc1ccccc1)c1ccsc1 [Molecule 68, O=C(C(Sc1ccccc1)(F)F)NNC(=O)c1cscc1]               25.6835
11  COc1ccc2c(c1)C(c1ccccc1OC)CC(=O)O2 (stereo not shown)               56.4964
12  COc1ccc(NC(=O)Cn2ccc3c(=O)[nH]ccc32)cc1 [Molecule 13, COc1ccc(cc1)NC(=O)Cn1ccc2c1cc[nH]c2=O]               73.6159
13  OC(C#Cc1ccccc1)c1ccco1 (stereo not shown)               80.4558
14  Cl.NC(CO)C(=O)NNCc1ccc(O)c(O)c1O (stereo not shown)               46.4998
15  CCCCCCCCCCCC1SCC(C(=O)O)N1C(C)=O (stereo not shown)               20.4329
